System: HL-60
procedure text: Induction of apoptosis in human HL60 cells expressing p-glycoprotein
Type: functional, cell-based
The source made the active and inactive calls. The calls are words filed in the database; no cut-off is given here.
Bench note: report the call from active, inactive

Would you please look over these solved cases?
molecule	tested target	label value
CCN(CC)C(=O)O/N=C/C12c3ccccc3C(CC1C#N)c1ccccc12 (stereo unspecified)	HL-60	inactive
CN(CC1CC2c3ccccc3C1c1ccccc12)C1CCCCC1 (stereo unspecified)	HL-60	inactive
O=[N+]([O-])/C=C/c1c2ccccc2cc2ccccc12	HL-60	active
CCOC(=O)N1CCN(C(=O)/C=C/c2c3ccccc3cc3ccccc23)CC1	HL-60	active
CN1CCN(C(=O)/C=C/c2c3ccccc3cc3ccccc23)CC1	HL-60	inactive

Asked: // param item: CN(C(=O)C1CC2c3ccccc3C1(C=O)c1ccccc12)C1CCCCC1 (stereo unspecified) ; yields the recorded call
Given back: active

---

System: PBMC
procedure text: Antiproliferative activity against human PBMC at 10 uM after 24 hrs by Alamar blue assay
Assay type: cell-based
endpoint name: Activity

Consider the reported Activity for these molecules:
molecule	tested target	Activity
CN1CCN(C(=O)/C=C/c2c3ccccc3cc3ccccc23)CC1	PBMC	Non-toxic
CC[C@]1(O)C[C@@H]2CN(CCc3c([nH]c4ccccc34)[C@@](C(=O)OC)(c3cc4c(cc3OC)N(C)[C@H]3[C@@](O)(C(=O)OC)[C@H](OC(C)=O)[C@]5(CC)C=CCN6CC[C@]43[C@@H]65)C2)C1	PBMC	Non-toxic
CCOC(=O)N1CCN(C(=O)/C=C/c2c3ccccc3cc3ccccc23)CC1	PBMC	Non-toxic
CCN(CC)C(=O)O/N=C/C12c3ccccc3C(CC1C#N)c1ccccc12 (stereo not given)	PBMC	Non-toxic

Asked: Using the record for O=[N+]([O-])/C=C/c1c2ccccc2cc2ccccc12 , report its Activity.
Given back: Toxic

---

procedure text: Antiproliferative activity against human DG75 cells after 72 hrs by Alamar blue assay
Assay type: functional, cell-based
experimental setup: DG-75, 72 h
Entries and their measured EC50 follow.

molecule	result
c1ccc2c(c1)C1CC(CN3CCOCC3)C2c2ccccc21 (stereo unspecified)	8.8 µM

Asked: Using the record for c1ccc2c(c1)C1CC(CN3CCCCC3)C2c2ccccc21 (stereo unspecified) , report its EC50.
Given back: 69.9 µM

Asked: // same read-out, input: N#C/C=C/C12c3ccccc3C(CC1C#N)c1ccccc12 (stereo unspecified)
Given back: > 100 µM

Asked: // same read-out, input: N#CC1CC2c3ccccc3C1(/C=N/OC(=O)c1ccccc1)c1ccccc12 (stereo unspecified)
Given back: 95.3 µM

Asked: // same read-out, input: CC(=O)/C=C/c1c2ccccc2cc2ccccc12
Given back: 7.6 µM

Asked: // same read-out, input: CN(CC1=CC2c3ccccc3C1c1ccccc12)C1CCCCC1
Given back: > 100 µM

Asked: // same read-out, input: N#CC1CC2c3ccccc3C1(/C=N/O)c1ccccc12 (stereo unspecified)
Given back: > 100 µM

Asked: // same read-out, input: O=[N+]([O-])/C=C/c1c2ccccc2cc2ccccc12
Given back: 1.5 µM

Asked: // same read-out, input: CNC(=O)CCC12c3ccccc3C(CC1C#N)c1ccccc12 (stereo unspecified)
Given back: > 100 µM

Asked: // same read-out, input: Clc1ccc(N2CCN(CC3CC4c5ccccc5C3c3ccccc34)CC2)cc1 (stereo unspecified)
Given back: > 100 µM

Asked: // same read-out, input: O=C(/C=C/c1c2ccccc2cc2ccccc12)N1CCCCC1
Given back: > 100 µM

---

procedure text: Antiproliferative activity against human DG75 cells after 72 hrs by Alamar blue assay
Format: functional, cell-based
experimental setup: DG-75, 72 h
pEC50: −log10 of the molar value.
endpoint name: pEC50

Consider the reported pEC50 for these molecules:
molecule	result
CCN(CC)C(=O)O/N=C/C12c3ccccc3C(CC1C#N)c1ccccc12 (stereo not given)	5.51
N#CC1CC2c3ccccc3C1(C=O)c1ccccc12 (stereo not given)	< 4.00
CCOC(=O)/C=C/C12c3ccccc3C(CC1C#N)c1ccccc12 (stereo not given)	< 4.00
O=[N+]([O-])c1ccc(/C=C/c2c3ccccc3cc3ccccc23)cc1	< 4.00
CCNCC1CC2c3ccccc3C1c1ccccc12 (stereo not given)	< 4.00
N#CC1CC2c3ccccc3C1(CO)c1ccccc12 (stereo not given)	< 4.00
CCOC(=O)CCC12c3ccccc3C(CC1C#N)c1ccccc12 (stereo not given)	< 4.00
CN(C)C(=O)/C=C/c1c2ccccc2cc2ccccc12	< 4.00

Asked: Using the record for CC(=O)OCC12c3ccccc3C(CC1C#N)c1ccccc12 (stereo not given) , report its pEC50.
Given back: < 4.00

Asked: // same read-out, input: C1=C(CN2CCCCC2)C2c3ccccc3C1c1ccccc12
Given back: 4.99

Asked: // same read-out, input: CN(C)CC1CC2c3ccccc3C1c1ccccc12 (stereo not given)
Given back: < 4.00

Asked: // same read-out, input: c1ccc(NCC2CC3c4ccccc4C2c2ccccc23)cc1 (stereo not given)
Given back: < 4.00

Asked: // same read-out, input: Cc1ccc(N2CCN(C(=O)/C=C/c3c4ccccc4cc4ccccc34)CC2)cc1
Given back: < 4.00

Asked: // same read-out, input: CC(=O)O/N=C/C12c3ccccc3C(CC1C#N)c1ccccc12 (stereo not given)
Given back: < 4.00

Asked: // same read-out, input: CN(CC1CC2c3ccccc3C1c1ccccc12)C1CCCCC1 (stereo not given)
Given back: 4.45

Asked: // same read-out, input: CCN(CC)CC1C2c3ccccc3C(c3ccccc32)C1CN(CC)CC (stereo not given)
Given back: 4.29

Asked: // same read-out, input: O=C(/C=C/c1c2ccccc2cc2ccccc12)N1CCCC1
Given back: 4.49

Asked: // same read-out, input: N#CC1CC2c3ccccc3C1(COC(=O)c1ccccc1)c1ccccc12 (stereo not given)
Given back: < 4.00

Asked: // same read-out, input: CNC(C)/C=C/c1c2ccccc2cc2ccccc12 (stereo not given)
Given back: < 4.00

Asked: // same read-out, input: CNCC12c3ccccc3C(CC1C#N)c1ccccc12 (stereo not given)
Given back: < 4.00

Reference for the values: ChEMBL document CHEMBL3102711
